- Procedure Summary: Toxicokinetics of racemic ketoconazole in another 28-day dog study (b)
- Study Conditions: female, beagle, dog, plasma, po, 40 mg/kg, Drug concentration in plasma, dogs, study b, powder, 40 mg/kg oral, day 1, F, 8 h

[
  {
    "Compound": "CC(=O)N1CCN(c2ccc(OCC3COC(Cn4ccnc4)(c4ccc(Cl)cc4Cl)O3)cc2)CC1 (racemic) [Racemic ketoconazole]",
    "Unit Name": "ng/mL",
    "concentration at 8 h": 1840
  }
]

* * *

- Procedure Summary: Toxicokinetics of racemic ketoconazole in another 28-day dog study (b)
- Study Conditions: female, beagle, dog, plasma, po, 40 mg/kg, Drug concentration in plasma, dogs, study b, powder, 40 mg/kg oral, day 28, F, 4 h

[
  {
    "Compound": "CC(=O)N1CCN(c2ccc(OCC3COC(Cn4ccnc4)(c4ccc(Cl)cc4Cl)O3)cc2)CC1 (racemic) [Racemic ketoconazole]",
    "Unit Name": "ng/mL",
    "concentration at 4 h": 38600
  }
]

* * *

- Procedure Summary: Toxicokinetics of racemic ketoconazole in another 28-day dog study (b)
- Study Conditions: male, beagle, dog, plasma, po, 10 mg/kg, Drug concentration in plasma, dogs, study b, powder, 10 mg/kg oral, day 28, M, 8 h

[
  {
    "Compound": "CC(=O)N1CCN(c2ccc(OCC3COC(Cn4ccnc4)(c4ccc(Cl)cc4Cl)O3)cc2)CC1 (racemic) [Racemic ketoconazole]",
    "concentration at 8 h (ng/mL)": 1440
  }
]

* * *

- Procedure Summary: Toxicokinetics in the 28 day dog study of DIO-902 (with racemic ketoconazole group a)
- Study Conditions: female, beagle, plasma, po, 6.5 mg/kg, AUC(0-12), dogs, 6.5 mg/kg oral, day 28, F
Measurement Label: AUC(0-t) (ng·h/mL)

[
  {
    "Compound": "CC(=O)N1CCN(c2ccc(OC[C@@H]3CO[C@@](Cn4ccnc4)(c4ccc(Cl)cc4Cl)O3)cc2)CC1 [DIO-902]",
    "Unit Name": "ng·h/mL",
    "Measured": 12900
  }
]

* * *

- Procedure Summary: Toxicokinetics in the 28 day dog study of DIO-902 (with racemic ketoconazole group a)
- Study Conditions: female, beagle, plasma, po, 6.5 mg/kg, Drug concentration in plasma, dogs, 6.5 mg/kg oral, day 1, F, 8 h

[
  {
    "Molecule": "CC(=O)N1CCN(c2ccc(OC[C@@H]3CO[C@@](Cn4ccnc4)(c4ccc(Cl)cc4Cl)O3)cc2)CC1 [DIO-902]",
    "concentration at 8 h, ng/mL": 500
  }
]

* * *

- Procedure Summary: Toxicokinetics in the 28 day dog study of DIO-902 (with racemic ketoconazole group a)
- Study Conditions: male, beagle, plasma, po, 2 mg/kg, Drug concentration in plasma, dogs, 2 mg/kg oral, day 28, M, 4 h
Measurement Label: concentration at 4 h (ng/mL)

[
  {
    "Compound": "CC(=O)N1CCN(c2ccc(OC[C@@H]3CO[C@@](Cn4ccnc4)(c4ccc(Cl)cc4Cl)O3)cc2)CC1 [DIO-902]",
    "Measured": 380
  }
]

* * *

- Procedure Summary: Toxicokinetics in the 28 day dog study of DIO-902 (with racemic ketoconazole group a);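 further: beagle dogs dosed orally once daily within a 28-day GLP study, 3 animals per sex per group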
- Study Conditions: male, beagle, plasma, po, 6.5 mg/kg, Drug concentration in plasma, dogs, 6.5 mg/kg oral, day 1, M, 12 h
Measurement Label: concentration at 12 h (ng/mL)

[
  {
    "Compound": "CC(=O)N1CCN(c2ccc(OC[C@@H]3CO[C@@](Cn4ccnc4)(c4ccc(Cl)cc4Cl)O3)cc2)CC1 [DIO-902]",
    "Measurement Label": "concentration at 12 h",
    "Measured": 400
  }
]

// data source = patent US11478471B2
